The entries below are paired with their reported EC50.
- SYSTEM: UniProtKB P56450
- Sequence (P56450 whole entry): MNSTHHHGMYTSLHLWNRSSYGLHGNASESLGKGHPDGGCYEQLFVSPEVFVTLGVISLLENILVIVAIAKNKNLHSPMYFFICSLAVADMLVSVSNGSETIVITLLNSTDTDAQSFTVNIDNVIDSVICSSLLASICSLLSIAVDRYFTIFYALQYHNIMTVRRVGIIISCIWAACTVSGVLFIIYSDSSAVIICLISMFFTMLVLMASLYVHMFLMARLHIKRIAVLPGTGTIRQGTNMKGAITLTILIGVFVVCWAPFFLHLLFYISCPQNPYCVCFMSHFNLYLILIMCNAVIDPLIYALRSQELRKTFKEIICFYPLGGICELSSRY
- PROTOCOL DETAILS: Agonist activity at mouse melanocortin 4 receptor expressed in HEK293 cells after 48 hrs by cAMP based beta-galactosidase reporter gene assay
Answer with a number only, understood to be in nM.

| STRUCTURE SMILES STRING | UNIT INFO | EC50 |
| --- | --- | --- |
| C[C@@H]1NC(=O)[C@H](CC(N)=O)NC(=O)[C@H](Cc2c[nH]c3ccccc23)NC(=O)[C@H](CCCNC(=N)N)N2C[C@@H](Cc3ccccc3)NC(=O)[C@@H](CSCC2=O)NC(=O)[C@H](Cc2cnc[nH]2)NC(=O)[C@@H](NC(=O)[C@@H](N)Cc2ccc(O)cc2)CSSC[C@@H](C(=O)N[C@@H](Cc2ccc(O)cc2)C(N)=O)NC(=O)[C@H](Cc2ccccc2)NC1=O | nM | 3210 |
| C[C@@H]1NC(=O)[C@H](CC(N)=O)NC(=O)[C@H](Cc2c[nH]c3ccccc23)N2C[C@H](CCCN=C(N)N)NC(=O)[C@H](CSCC2=O)NC(=O)[C@@H](Cc2ccccc2)NC(=O)[C@H](Cc2cnc[nH]2)NC(=O)[C@@H](NC(=O)[C@@H](N)Cc2ccc(O)cc2)CSSC[C@@H](C(=O)N[C@@H](Cc2ccc(O)cc2)C(N)=O)NC(=O)[C@H](Cc2ccccc2)NC1=O | nM | 85 |
| CC(=O)N[C@@H](Cc1cnc[nH]1)C(=O)N[C@H](Cc1ccccc1)C(=O)N[C@@H]1CSCC(=O)N([C@@H](Cc2c[nH]c3ccccc23)C(N)=O)C[C@H](CCCN=C(N)N)NC1=O | nM | 650 |

From here, focus on the item given below.
Kindly note the recorded EC50 for C[C@@H]1NC(=O)[C@H](CC(N)=O)NC(=O)[C@H](Cc2c[nH]c3ccccc23)NC(=O)[C@H](CCCN=C(N)N)NC(=O)[C@@H](Cc2ccccc2)NC(=O)[C@H](Cc2cnc[nH]2)NC(=O)[C@@H](NC(=O)[C@@H](N)Cc2ccc(O)cc2)CSSC[C@@H](C(=O)N[C@@H](Cc2ccc(O)cc2)C(N)=O)NC(=O)[C@H](Cc2ccccc2)NC1=O , which is 0.27
